All values here come from patent US20210130436A1.

- Assayed target: T1, human CTLA-4 (human, UniProt P16410 36-223)
- T1 construct: also called huCTLA4
- T1 sequence (P16410 36-223): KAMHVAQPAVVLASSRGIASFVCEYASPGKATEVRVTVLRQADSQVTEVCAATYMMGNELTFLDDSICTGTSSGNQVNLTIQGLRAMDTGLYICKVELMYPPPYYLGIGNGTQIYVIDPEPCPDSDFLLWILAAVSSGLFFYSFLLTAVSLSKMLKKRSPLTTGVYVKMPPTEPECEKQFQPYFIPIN
- Experiment summary: flow cytometry, CHO cells stably expressing CTLA4
Measured endpoint: MFI at 33.3 nM (MFI)
Give bare numbers, in MFI.

Completed entries (count: 3):
What value of MFI at 33.3 nM has been reported for the following binder? CD80 WT IgV-Fc (Fc fusion, not shown: a dimerising Fc or GST, Wild-type control; also called WT CD80-IgV-Fc) VIHVTKEVKEVATLSCGHNVSVEELAQTRIYWQKEKKMVLTMMSGDMNIWPEYKNRTIFDITNNLSIVILALRPSDEGTYECVVLKYEKDAFKREHLAEVTLSVKAD
26400

Request the reported MFI at 33.3 nM associated with CD80 IgV-Fc T13R/Q27L/Q33L/E35D/T41S/M47V/N48K/V68M/L85M (Fc fusion, not shown: a dimerising Fc or GST) VIHVTKEVKEVARLSCGHNVSVEELALTRIYWLKDKKMVLSMMSGDVKIWPEYKNRTIFDITNNLSIMILALRPSDEGTYECVVMKYEKDAFKREHLAEVTLSVKAD
109

# query: MFI at 33.3 nM of entry CD80 IgV-Fc T13R/Q33R/E35D/M38I/M47L/V68M/E95V/L97Q (Fc fusion, not shown: a dimerising Fc or GST) VIHVTKEVKEVARLSCGHNVSVEELAQTRIYWRKDKKIVLTMMSGDLNIWPEYKNRTIFDITNNLSIMILALRPSDEGTYECVVLKYEKDAFKRVHQAEVTLSVKAD
20700

Here is another binder to look at.
Give its MFI at 33.3 nM value. Item: CD80 IgV-Fc T13R/Q33R/E35D/M47L/V68M/L85M (Fc fusion, not shown: a dimerising Fc or GST) VIHVTKEVKEVARLSCGHNVSVEELAQTRIYWRKDKKMVLTMMSGDLNIWPEYKNRTIFDITNNLSIMILALRPSDEGTYECVVMKYEKDAFKREHLAEVTLSVKAD
13400
